- PROTOCOL NOTES: Plasma pharmacokinetics (LC-MS/MS)
- Type: in vivo, human
- MEASUREMENT SETUP: human, plasma, oral, 4 mg, cycle 1, day 1; 4 mg; read-out: AUC0–last [%CV]
ASSAY METRIC: AUC(0-t) (ng·h/mL)

>>> print(df.to_string())
                           structure_string  assay_metric  value_measured
0  CC(C)n1nc(-c2ccc3oc(N)nc3c2)c2c(N)ncnc21      AUC(0-t)            63.2

====

- PROTOCOL NOTES: Plasma pharmacokinetics (LC-MS/MS)
- Assay type: in vivo, human
- MEASUREMENT SETUP: human, plasma, oral, 15 mg, cycle 2, day 1; QW 15 mg
ASSAY METRIC: Cmax (ng/mL)

                           structure_string  assay_metric  value_measured
0  CC(C)n1nc(-c2ccc3oc(N)nc3c2)c2c(N)ncnc21          Cmax            64.9
